Tested on: MCF7 (breast cancer)
Experiment description: ATP level assay (CellTiter-Glo), percent of control
Type: cell-based
Experimental context: compound 100 uM + 2DG (about 10-20 mM), two hour incubation
The compounds listed here are annotated with their POC (percent of control) MCF7.

Some solved cases for reference:
| Item smiles | POC (percent of control) MCF7 |
| --- | --- |
| Cc1ccc(S(=O)(=O)NCc2c[nH]c3cccc(Br)c23)cc1 | 18.7% of control |
| O=S(=O)(NCc1cncnc1)c1ccc(Cl)cc1 | 109.8% of control |

In the following, a different compound is considered.
Enquiry: // query POC (percent of control) MCF7 value for entry Cc1cccc2c(CNS(=O)(=O)c3ccccc3)c[nH]c12
Return: 41% of control

----------
System: MDA-MB (breast cancer)
Experiment description: ATP level assay (CellTiter-Glo), percent of control
Type: cell-based
Experimental context: compound 100 uM + rotenone (approximately 1.25 μM), two hour incubation
Each record here notes measured POC (percent of control) MDA-MB.

Recorded results for 9 compounds are shown here.
| Compound | System under test | POC (percent of control) MDA-MB |
| --- | --- | --- |
| O=S(=O)(NCc1cncnc1)c1ccc(Cl)cc1 [Compound 14] | MDA-MB (breast cancer) | 87.5% of control |
| O=S(=O)(NCc1c[nH]c2ccccc12)c1ccc(Cl)cc1 [Compound 2] | MDA-MB (breast cancer) | 55.7% of control |
| Cn1cc(CNS(=O)(=O)c2ccc(Cl)cc2)c2ccccc21 [Compound 29] | MDA-MB (breast cancer) | 69.7% of control |
| O=S(=O)(NCc1c[nH]c2ccccc12)c1ccccc1 [Compound 3] | MDA-MB (breast cancer) | 102.7% of control |
| O=S(=O)(NCc1cncnc1)c1ccccc1 [Compound 15] | MDA-MB (breast cancer) | 90.8% of control |
| Cc1cccc2[nH]cc(CNS(=O)(=O)c3ccccc3)c12 [Compound 7] | MDA-MB (breast cancer) | 102.4% of control |
| Cc1ccc(S(=O)(=O)NCc2nn(C)c3ccccc23)cc1 [Compound 8] | MDA-MB (breast cancer) | 86.2% of control |
| O=S(=O)(NCc1c[nH]c2ccccc12)c1ccc(C(F)(F)F)cc1 [Compound 24] | MDA-MB (breast cancer) | 49.7% of control |
| Cn1ncc2cc(CNS(=O)(=O)c3ccc(Cl)cc3)ccc21 [Compound 10] | MDA-MB (breast cancer) | 87.4% of control |

Continue with the compound presented below.
Enquiry: Would you kindly share the measured POC (percent of control) MDA-MB for Cc1ccc(S(=O)(=O)NCc2cscn2)cc1 [Compound 17] ?
Return: 98.1% of control

----------
System: MCF7 (breast cancer)
Experiment description: ATP level assay (CellTiter-Glo), percent of control
Type: cell-based
Experimental context: compound 100 uM + 2DG (about 10-20 mM), two hour incubation
Experimental endpoint: POC (percent of control) MCF7

Solved cases below.
| Compound | System under test | POC (percent of control) MCF7 |
| --- | --- | --- |
| Cc1ccc(S(=O)(=O)NCc2c[nH]c3ccccc23)cc1 [Compound 1] | MCF7 (breast cancer) | 86.8% of control |
| COc1ncccc1CNS(=O)(=O)c1ccc(C)cc1 [Compound 12] | MCF7 (breast cancer) | 90.8% of control |
| O=S(=O)(NCc1cncnc1)c1ccccc1 [Compound 15] | MCF7 (breast cancer) | 103.4% of control |

Enquiry: Quick one: POC (percent of control) MCF7 for Cc1cccc2c(CNS(=O)(=O)c3ccc(Cl)cc3)c[nH]c12 [Compound 28] ?
Return: 60.7% of control

Enquiry: Item Cn1cc(CNS(=O)(=O)c2ccc(Cl)cc2)cn1 [Compound 11] has what recorded POC (percent of control) MCF7?
Return: 98.4% of control

Enquiry: Returns the measured POC (percent of control) MCF7 for the input compound. Input: COc1ccc(S(=O)(=O)NCc2c[nH]c3ccccc23)cc1 [Compound 23]
Return: 93.6% of control

Enquiry: What does the record list as POC (percent of control) MCF7 for O=S(=O)(NCc1cscn1)c1ccc(Cl)cc1 [Compound 18] ?
Return: 137.3% of control

Enquiry: Need POC (percent of control) MCF7, item Cc1ccc(S(=O)(=O)NCc2nn(C)c3ccccc23)cc1 [Compound 8]
Return: 86.2% of control
